- Assay Summary: chemical genetic growth profiling, strain panel (AID 1159580);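 note: tested at 20 µM; growth read once vehicle control cultures reached saturation at 30 °C; 1 = growth at the plate median or of vehicle wells; lower values mean less growth of the strain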
- Reported Conditions: S. cerevisiae deletion strains, growth OD, locus YJL187C, strain SWE1 (second series), hits give low values
Among all 5,500 compounds or so, about 2,000 (36%) were called active. About 18% were inconclusive and are not listed. The list shows a part of the results.
Reported Property: normalized growth
Enter a number only.

Use these answered entries as a reference point.
# normalized growth (compound: CC(=O)OCC(=O)[C@@]12OC3(CCCC3)O[C@@H]1CC1C3CCC4=CC(=O)C=C[C@]4(C)[C@@]3(F)[C@@H](O)C[C@@]12C (some centres undefined) ) is 1.01

# normalized growth (compound: CC(=O)O[C@H]1CC[C@]2(C)C3CC(=O)[C@]4(C)C(C(C)=O)=CCC4C3CC[C@H]2C1 (some centres undefined) ) is 1.01

---
# normalized growth (compound: Cc1cc(C(C)(C)C)cc(C)c1CC1=NCCN1 ) is 1.03

# normalized growth (compound: CC(=O)O[C@H]1CC[C@]2(C)C3CC[C@@]4(C)C(CC5O[C@@]6(CCC(C)CO6)[C@@H](C)C54)C3CC[C@H]2C1 (some centres undefined) ) is 0.977

# normalized growth (compound: Cc1ccc(N(CC2=NCCN2)c2cccc(O)c2)cc1 ) is 0.993

# normalized growth (compound: CCCc1nc2c(C)cc(-c3nc4ccccc4n3C)cc2n1Cc1ccc(-c2ccccc2C(=O)O)cc1 ) is 0.995

# normalized growth (compound: CC(=O)O[C@@H]1CC[C@]2(C)C3CC[C@]4(C)C(=O)CCC4C3CC[C@H]2C1 (some centres undefined) ) is 0.955

# normalized growth (compound: Cc1cc(C(C)(C)C)c(O)c(C)c1CC1=NCCN1 ) is 1

# normalized growth (compound: CC(=O)[C@@]1(O)CCC2C3CCC4=CC(=O)CC[C@]4(C)C3CC[C@@]21C (some centres undefined) ) is 0.994

Hello, the source for this data is PubChem BioAssay AID1159580, in case you need it.
